Tested on: WT Max(13-93) synthetic (M65Nle)
test_method_notes: PBM 8-mer E-score (E-score (rank enrichment, -0.5 to 0.5)); higher = stronger preferential binding
Whole data set: some 33,000 sequences, median “E-score (rank enrichment, -0.5 to 0.5)” near -0.0075, cut for the highest 2% near 0.23. The full list was thinned out, with the highest values kept by preference.
Entries are sorted into classes by PBM 8-mer E-score as follows: range 1 = under 0.03, range 2 = from 0.03 up to 0.2, range 3 = 0.2 and over

Field: example entries. Status: answers known.
sequence_data: CAGTGCGA
label_class: range 1
--
sequence_data: GTTGATTA
label_class: range 3
--
sequence_data: TAGATTAA
label_class: range 2
--
sequence_data: ACATGATC
label_class: range 3
--
sequence_data: CTAACCAC
label_class: range 2
--
sequence_data: AATCACCT
label_class: range 2
--
sequence_data: CCGCCTCA
label_class: range 1
--
sequence_data: TGTGGTAA
label_class: range 1

Lookup: Note: place this sequence into its band. Item: AATATTAG
Found: range 2

Lookup: Consider next the sequence ACGCATTC in the same way.
Found: range 1

###

Tested on: WT Max(13-93) synthetic (M65Nle)
test_method_notes: PBM 8-mer E-score (E-score (rank enrichment, -0.5 to 0.5)); higher = stronger preferential binding
The full ranking holds about 33,000 sequences; the median of “E-score (rank enrichment, -0.5 to 0.5)” is about -0.0075, and the highest 2% start at about 0.23. This excerpt belongs to a sample that is enriched for the highest values.
Please mark True if the recorded PBM 8-mer E-score is equal to or greater than 0.2, and False if it falls below.

Field: example entries. Status: answers known.
sequence_data: CAGCGGGA
test_system: WT Max(13-93) synthetic (M65Nle)
label_class: False
--
sequence_data: ATGGTCCA
test_system: WT Max(13-93) synthetic (M65Nle)
label_class: False
--
sequence_data: CCCGTGTC
test_system: WT Max(13-93) synthetic (M65Nle)
label_class: False
--
sequence_data: ACCCACGA
test_system: WT Max(13-93) synthetic (M65Nle)
label_class: False
--
sequence_data: AGCCCCCC
test_system: WT Max(13-93) synthetic (M65Nle)
label_class: False
--
sequence_data: ATTTTATA
test_system: WT Max(13-93) synthetic (M65Nle)
label_class: True
--
sequence_data: CCCGTGTA
test_system: WT Max(13-93) synthetic (M65Nle)
label_class: False
--
sequence_data: CGCATCAG
test_system: WT Max(13-93) synthetic (M65Nle)
label_class: False

Lookup: Determine whether this sequence has PBM 8-mer E-score no lower than 0.2: AACCATGT
Found: True

###

Tested on: WT Max(13-93) synthetic (M65Nle)
test_method_notes: PBM 8-mer E-score (E-score (rank enrichment, -0.5 to 0.5)); higher = stronger preferential binding
Over roughly 33,000 sequences, “E-score (rank enrichment, -0.5 to 0.5)” has its median near -0.0075; the highest 2% begin near 0.23. For the sample, the highest values were picked, then their nearest neighbours and some sequences at random.
Please mark T if the recorded PBM 8-mer E-score is equal to or greater than -0.07, and F if it falls below.

Lookup: Determine whether this sequence has PBM 8-mer E-score no lower than -0.07: CTCGCGTC
Found: T

Lookup: Consider next the sequence AAGACACC in the same way.
Found: F

Lookup: Consider next the sequence GCCAATCA in the same way.
Found: T

Lookup: Consider next the sequence ACGTGGTC in the same way.
Found: T

###

Test system: WT Max(13-93) synthetic (M65Nle)
test_method_notes: PBM 8-mer E-score (E-score (rank enrichment, -0.5 to 0.5)); higher = stronger preferential binding
In all, about 33,000 sequences were measured (“E-score (rank enrichment, -0.5 to 0.5)”: median about -0.0075, highest 2% from about 0.23 on). The list comes from a sample in which the highest values are over-represented; it also holds close analogues and randomly drawn sequences.
Please mark 1 (yes) if the recorded PBM 8-mer E-score is equal to or greater than 0.1, and 0 (no) if it falls below.

Field: example entries. Status: answers known.
sequence_data: GAAACAAC
label_class: 0 (no)
--
sequence_data: ACACATGG
label_class: 1 (yes)
--
sequence_data: ATTACTAG
label_class: 0 (no)
--
sequence_data: CATAATTA
label_class: 1 (yes)
--
sequence_data: ATGTAATG
label_class: 1 (yes)

Lookup: Determine whether this sequence has PBM 8-mer E-score no lower than 0.1: ACGTGGTG
Found: 1 (yes)

Lookup: Consider next the sequence GAGGATGC in the same way.
Found: 0 (no)

Lookup: Consider next the sequence AAGTGGTG in the same way.
Found: 0 (no)

Lookup: Consider next the sequence ATAATTAG in the same way.
Found: 1 (yes)

Lookup: Consider next the sequence GAATTCTA in the same way.
Found: 0 (no)

Lookup: Consider next the sequence GGAGTTCA in the same way.
Found: 0 (no)

Lookup: Consider next the sequence ATAATTTA in the same way.
Found: 1 (yes)

Lookup: Consider next the sequence ATAATTTC in the same way.
Found: 0 (no)

Lookup: Consider next the sequence GACTACAC in the same way.
Found: 0 (no)

Lookup: Consider next the sequence ATACATGG in the same way.
Found: 1 (yes)

###

System: WT Max(13-93) synthetic (M65Nle)
test_method_notes: PBM 8-mer E-score (E-score (rank enrichment, -0.5 to 0.5)); higher = stronger preferential binding
In all, about 33,000 sequences were measured (“E-score (rank enrichment, -0.5 to 0.5)”: median about -0.0075, highest 2% from about 0.23 on). Many of the other results were omitted from the sample, so the highest values are more common in it than they were.
The entries below come with measured PBM 8-mer E-score values attached.
The answer should be a number; do not append a unit.

Solved entries (count: 7):
sequence_data: TAAGACAA
quantity_name: PBM 8-mer E-score
measured_value: 0.26
--
sequence_data: ACAACACG
quantity_name: PBM 8-mer E-score
measured_value: 0.261
--
sequence_data: AAGGCGTC
quantity_name: PBM 8-mer E-score
measured_value: -0.0911
--
sequence_data: AATGCTGG
quantity_name: PBM 8-mer E-score
measured_value: 0.0745
--
sequence_data: CATGACAC
quantity_name: PBM 8-mer E-score
measured_value: 0.29
--
sequence_data: ACTTAATA
quantity_name: PBM 8-mer E-score
measured_value: 0.21
--
sequence_data: AAAGACAA
quantity_name: PBM 8-mer E-score
measured_value: 0.2

Lookup: Entry ATTTAATA has what PBM 8-mer E-score?
Found: 0.23

###

Test system: WT Max(13-93) synthetic (M65Nle)
test_method_notes: PBM 8-mer E-score (E-score (rank enrichment, -0.5 to 0.5)); higher = stronger preferential binding
In all, about 33,000 sequences were measured (“E-score (rank enrichment, -0.5 to 0.5)”: median about -0.0075, highest 2% from about 0.23 on). This excerpt belongs to a sample that is enriched for the highest values.
quantity_name: PBM 8-mer E-score

Lookup: Lab note: need PBM 8-mer E-score for ATCATGAA on WT Max(13-93) synthetic (M65Nle), anyone have it?
Found: 0.0859

Lookup: Consider next the sequence ATCACTGA in the same way.
Found: -0.0485

Lookup: Consider next the sequence CGTGTATC in the same way.
Found: 0.149

###

The entries below come with measured PBM 8-mer E-score values attached.
Test system: WT Max(13-93) synthetic (M65Nle)
test_method_notes: PBM 8-mer E-score (E-score (rank enrichment, -0.5 to 0.5)); higher = stronger preferential binding
Over roughly 33,000 sequences, “E-score (rank enrichment, -0.5 to 0.5)” has its median near -0.0075; the highest 2% begin near 0.23. Shown is part of a subset that was picked to be rich in the highest values.
The answer should be a number; do not append a unit.

Solved entries (count: 5):
sequence_data: ATTGTAGA
test_system: WT Max(13-93) synthetic (M65Nle)
PBM 8-mer E-score: 0.302
--
sequence_data: AAATGTAC
test_system: WT Max(13-93) synthetic (M65Nle)
PBM 8-mer E-score: 0.268
--
sequence_data: CAGTAACG
test_system: WT Max(13-93) synthetic (M65Nle)
PBM 8-mer E-score: -0.0368
--
sequence_data: GATAAAAA
test_system: WT Max(13-93) synthetic (M65Nle)
PBM 8-mer E-score: 0.242
--
sequence_data: AGATGCAA
test_system: WT Max(13-93) synthetic (M65Nle)
PBM 8-mer E-score: 0.152

Lookup: Entry CTGGTCCA has what PBM 8-mer E-score?
Found: -0.128

Lookup: Consider next the sequence GTTCGGGA in the same way.
Found: -0.13

Lookup: Consider next the sequence AAGCATCC in the same way.
Found: 0.0408

Lookup: Consider next the sequence ACATGGGA in the same way.
Found: 0.135

Lookup: Consider next the sequence ACATGGCG in the same way.
Found: 0.183

Lookup: Consider next the sequence CCGACGCC in the same way.
Found: -0.139

Lookup: Consider next the sequence GCAGTGAA in the same way.
Found: 0.0345

Lookup: Consider next the sequence ATAAAGTA in the same way.
Found: 0.18

Lookup: Consider next the sequence CCTCGCGA in the same way.
Found: -0.00258

Lookup: Consider next the sequence ATTAAGTG in the same way.
Found: 0.106

Lookup: Consider next the sequence GTCGCCGA in the same way.
Found: -0.0844

Lookup: Consider next the sequence GCATGTAC in the same way.
Found: 0.197

Lookup: Consider next the sequence CTATGGTC in the same way.
Found: -0.0873

Lookup: Consider next the sequence CAATAATC in the same way.
Found: 0.00647

Lookup: Consider next the sequence CCACGTAG in the same way.
Found: -0.0793

Lookup: Consider next the sequence TGCGTACA in the same way.
Found: 0.188
